# Test system: OVCAR-4
# procedure-details: NCI tumour cell line growth inhibition, 48 h
Active and inactive are the calls of the source. Cut-off read from the data, not from the text of the source: active = GI50 up to about 1.1 µM and inactive = higher. Square brackets hold non-standard residues; d marks the D form. Peptide text beside a SMILES is read from it. * marks the point of attachment. NMeV = CN[C@H](C(=O)O)C(C)C; X28 = COc1ccc(CN*)c(OC)c1; Octanoyl = CCCCCCCC(=O)*; dNMeA = CN[C@H](C)C(=O)O
Give measured GI50 for each item. Keep answers brief.

Which measured GI50 value corresponds to Nc1nc(O)c2c(n1)NCN(CCCN1CCOCC1)C2 ?
> 100 µM (inactive)

Similarly, Cc1ccc([N+](=O)[O-])c2c(NCCNC(=O)Cn3ccnc3[N+](=O)[O-])ccnc12 ?
33.3 µM (inactive)

Similarly, CCCCCCCC(=O)N[C@H](C(=O)N[C@H](C(=O)N(C)[C@H](C(=O)N1CCC[C@H]1C(=O)N(C)[C@H](C)C(=O)NCc1ccc(OC)cc1OC)C(C)C)C(C)C)C(C)C (Octanoyl-VV[NMeV]P[dNMeA]-X28) ?
6.14 µM (inactive)

Similarly, CC1=C(N(C)C)C(=O)c2nc3n(c2C1=O)CCC3OC(N)=O (stereo not given) ?
19.9 µM (inactive)

Similarly, CCSCCCCC(c1ccc(O)cc1)C(C)(CC)c1ccc(O)cc1 (stereo not given) ?
21.7 µM (inactive)

---

# Test system: SF-268
# procedure-details: NCI tumour cell line growth inhibition, 48 h
The source made the active and inactive calls. Rule as the data show it: active = GI50 up to about 1.1 µM and inactive = higher.
endpoint: GI50

Which measured GI50 value corresponds to CCOC(=O)C1=C(O)C(=O)c2cc(OC)ccc2C1=O ?
> 100 µM (inactive)

Similarly, Cc1ccc2c(O)cc(-c3cccc(Cl)c3)nc2n1 ?
0.59 µM (active)

Similarly, Nc1ncnc2c1ncn2C1OC(CSC(F)F)C(O)C1O (stereo unspecified) ?
> 100 µM (inactive)

Similarly, CC(=O)NNc1nc(C)c(C(/C=C/c2cccc([N+](=O)[O-])c2)=N/NC(=S)NN)s1 ?
> 100 µM (inactive)

Similarly, O=c1c2ncn(C3CC(O)C(CO)O3)c2nnn1Cc1ccccc1[N+](=O)[O-] (stereo unspecified) ?
> 100 µM (inactive)

Similarly, O=C1OC(C2Cc3ccc4c(c3C2=O)CCCC4)c2ccccc21 (stereo unspecified) ?
49.2 µM (inactive)

Similarly, COc1ccc(CNc2cnc3cc(N)ccc3n2)cc1OC ?
> 100 µM (inactive)

Similarly, Cc1nc(-c2ccc(Cl)cc2)cn2c1nc1ccccc12 ?
> 100 µM (inactive)

Similarly, Nc1ncnc2c1ccn2C1OC2COP(=O)(O)OC2C1O (stereo unspecified) ?
0.46 µM (active)

Similarly, CN(C)c1nc(N(C)C)nc(N(C)CN(C)c2nc(N(C)C)nc(N(C)C)n2)n1 ?
> 100 µM (inactive)

Similarly, O=c1cnn(C2OC(C(O)CO)C(O)C2O)c(=O)[nH]1 (stereo unspecified) ?
> 100 µM (inactive)

---

# Test system: SK-OV-3
# procedure-details: NCI tumour cell line growth inhibition, 48 h
Calls of active or inactive are those of the source. No stated cut-off is given here; in the data, active = GI50 up to about 1.1 µM and inactive = higher.
Give measured GI50 for each item. Keep answers brief.

Which measured GI50 value corresponds to C[C@]12CC[C@H](O)CC1=CC[C@@H]1C2CC[C@]2(C)C(=O)N(N)C(=O)CC12 (stereo partly specified) ?
> 100 µM (inactive)

Similarly, CN1CCN(C)C12C=CC=CC21CC1 ?
> 100 µM (inactive)

Similarly, CC(C)N(C(=O)C12C3C4C1C1C4(C#N)C3C12C(=O)O)C(C)C (stereo unspecified) ?
> 100 µM (inactive)

Similarly, O=c1cc(-c2ccccc2)[nH]c2ccc(N3CCCC3)cc12 ?
0.0466 µM (active)

Similarly, C[N+](C)(C)CC1CCCC1=O (stereo unspecified) ?
16.5 µM (inactive)

Similarly, Cc1cc(S(=O)(=O)O)c(NC(=O)c2oc3cc(O)ccc3c(=O)c2C)cc1Cl ?
> 100 µM (inactive)

Similarly, CCC1NCC(=O)c2c1[nH]c1ccccc21 (stereo unspecified) ?
> 100 µM (inactive)

Similarly, FC(F)(F)c1ccc2nc(NCc3ccccc3)c(-c3ccccc3)nc2c1 ?
38.4 µM (inactive)

Similarly, CC(C)C(C/C=C1/CC(CO)(COC(=O)C2CCCCC2)OC1=O)C(C)C (stereo unspecified) ?
> 100 µM (inactive)

Similarly, COc1cc(/C=C2\CC3C4CC[C@H]5C[C@@H](O)CC[C@]5(C)C4CC[C@]3(C)\C2=N\O)cc(OC)c1OC (stereo partly specified) ?
19.2 µM (inactive)

Similarly, CC(=O)NC1C(OCc2ccccc2)OC(CO)C(O)C1OCC(=O)NC(C)C(=O)NC(CCC(=O)Nc1ccc2c(c1)CN1C(=O)c3ccccc3C1=N2)C(N)=O (stereo unspecified) ?
> 100 µM (inactive)

Similarly, O=C(c1cc2ccccc2cc1O)N1CCCCC1 ?
42.2 µM (inactive)

Similarly, NC(=S)Nc1nc(=S)[nH]c2[nH]ccc12 ?
> 100 µM (inactive)

Similarly, O=S(=O)(/N=c1/[nH]c2ccccc2n1S(=O)(=O)c1ccccc1)c1ccccc1 ?
50 µM (inactive)

Similarly, COc1cc2c(SCCN(C)C)nc3ccccc3c2c2ccccc12 ?
10.4 µM (inactive)

Similarly, O=S1(=O)CS(=O)(=O)OCCCCCO1 ?
> 100 µM (inactive)

Similarly, O=C(Nc1ccc(F)cc1)c1cc2ccc(O)cc2o/c1=N\c1cccc(F)c1 ?
51.6 µM (inactive)

Similarly, COc1ccc2c3c1O[C@H]1C[C@@H](O)C=C[C@@]31CCN(C)C2 ?
> 150 µM (inactive)

Similarly, Nc1ccc(C2=Nc3ccccc3SC(c3ccccc3O)C2)cc1 (stereo unspecified) ?
> 100 µM (inactive)

Similarly, CC(C)CCCC(C)[C@H]1CC[C@H]2N/C(=N/c3ccccc3)CCC[C@]12C (stereo partly specified) ?
2.03 µM (inactive)

Similarly, O=C1/C(=C/c2ccc3c(c2)OCO3)CCC1CN1CCOCC1 (stereo unspecified) ?
18.4 µM (inactive)

---

# Tested on: RXF 393
# procedure-details: NCI tumour cell line growth inhibition, 48 h
Active and inactive are the calls of the source. No stated cut-off is given here; in the data, active = GI50 up to about 1.1 µM and inactive = higher.
Give measured GI50 for each item. Keep answers brief.

Which measured GI50 value corresponds to NCCN1C(=O)CN=C(c2ccc(Cl)cc2)c2cc(Cl)ccc21 ?
11.5 µM (inactive)

Similarly, COc1ccc(/C(Cl)=C/c2cc(OC)ccc2OC)cc1 ?
20.5 µM (inactive)

Similarly, CC(O)C1(CNc2cc(Cl)nc(N)n2)CCC1 (stereo unspecified) ?
24.2 µM (inactive)

Similarly, Cc1nc2c(Cl)cc(Cl)cc2c2c1CCO2 ?
87.3 µM (inactive)

Similarly, Nc1nc(Cl)cc(NCC2(CO)CC(CCCCc3ccccc3)C2)n1 (stereo unspecified) ?
34.6 µM (inactive)

Similarly, Cc1cc(C)c2c(c1)CC1(Cc3c(C)cc(C)cc3C1=O)C2=O (stereo unspecified) ?
> 100 µM (inactive)

Similarly, NC(CC(=O)O)(Cc1ccccc1)C(=O)O (stereo unspecified) ?
> 100 µM (inactive)

Similarly, C[N+](C)(C)CC(=O)N/N=C(\C(=O)NC1=C(Cl)C(=O)c2ccccc2C1=O)C(C#N)c1nc(-c2ccc([N+](=O)[O-])cc2)cs1 (stereo unspecified) ?
11.2 µM (inactive)

Similarly, Cc1cc(S(=O)(=O)O)c(NC(=O)c2oc3cc(O)ccc3c(=O)c2C)cc1Cl ?
> 100 µM (inactive)

Similarly, CC(C)(C)/C(O)=C\c1nc2cc(F)c(F)cc2[nH]c1=O ?
> 100 µM (inactive)

Similarly, O=C1C2C(c3ccccc3)NC(c3ccccc3)C1C(c1ccccc1)NC2c1ccccc1 (stereo unspecified) ?
> 100 µM (inactive)

---

# Test system: SK-OV-3
# procedure-details: NCI tumour cell line growth inhibition, 48 h
The source made the active and inactive calls. Cut-off read from the data, not from the text of the source: active = GI50 up to about 1.1 µM and inactive = higher.
Output constraint: value belongs to active, inactive

Each compound tested received a call. Report the one for CCSC1=CC(=O)c2nc3ccccc3c3ccnc1c23 .
inactive

Similarly, Cc1ccc(O)c(/N=N/c2ccc(S(=O)(=O)O)cc2)n1 ?
inactive

Similarly, Cn1c2ccccc2c(=NNc2ccc(C(=O)O)cc2)c2ccccc21 ?
inactive

Similarly, CNC(=O)CC1NC(=O)c2csc(n2)-c2ccc(-c3nc(C4=NC(C(=O)N5CCCC5C(N)=O)CO4)cs3)nc2-c2csc(n2)-c2csc(n2)C(C(C)C)NC(=O)CNC(=O)c2csc(n2)C(C(C)C)NC(=O)c2nc1sc2C (centres undefined) ?
active

---

# Tested on: SW-620
# procedure-details: NCI tumour cell line growth inhibition, 48 h
Active and inactive are the calls of the source. No stated cut-off is given here; in the data, active = GI50 up to about 1.1 µM and inactive = higher. Square brackets hold non-standard residues; d marks the D form. Peptide text beside a SMILES is read from it. * marks the point of attachment. NMeV = CN[C@H](C(=O)O)C(C)C; X28 = COc1ccc(CN*)c(OC)c1; Octanoyl = CCCCCCCC(=O)*; dNMeA = CN[C@H](C)C(=O)O
Output constraint: value belongs to YES = active, NO = inactive

Each compound tested received a call. Report the one for C[C@@H]([C@H]1CC[C@@]2(C)[C@@H]3CC[C@@H]4C(=CC3=CC[C@]12C)CC[C@H](N(C)C)C4(C)C)N(C)C .
NO

Similarly, Cc1ccc(NC(=O)CCc2nnc(N)o2)cc1 ?
NO

Similarly, Cc1c(O)c(=O)ccn1CCN ?
NO

Similarly, Cc1cc(S(=O)(=O)O)c(NC(=O)c2oc3cc(O)ccc3c(=O)c2C)cc1Cl ?
NO

Similarly, CCOc1cc(-c2nc3ccccn3c2/N=C/c2cc(Br)ccc2O)ccc1O ?
NO

Similarly, COC(=O)CNC(=O)CNC(=O)CSc1nnc(COc2ccc(Cl)cc2)n1-c1ccccc1 ?
NO

Similarly, CCOC(=O)C(=O)/C(=C/NC(=S)Nc1ccc(Cl)c(Cl)c1)C(=O)OCC ?
NO

Similarly, COC1CC(COCc2ccccc2)CC(OC)O1 (stereo unspecified) ?
NO

Similarly, C[C@]12CC[C@H]3[C@@H](CC[C@]4(O)C[C@@H](O)CC[C@]34C=O)[C@@]1(O)CC[C@@H]2C1=CC(=O)OC1 ?
YES

Similarly, CCN(CC)/[N+]([O-])=N/OS(=O)(=O)N(C)C ?
NO

Similarly, CCCCCCCC(=O)N[C@H](C(=O)N[C@H](C(=O)N(C)[C@H](C(=O)N1CCC[C@H]1C(=O)N(C)[C@H](C)C(=O)NCc1ccc(OC)cc1OC)C(C)C)C(C)C)C(C)C (Octanoyl-VV[NMeV]P[dNMeA]-X28) ?
NO
